Listing of entries alongside the reported OD values.
Molecular target: T1, cynomolgus galectin-10-His, YRT isoform (cynomolgus)
T1 construct: also called cynoGal10-YRT; not shown: His tag
T1 chain: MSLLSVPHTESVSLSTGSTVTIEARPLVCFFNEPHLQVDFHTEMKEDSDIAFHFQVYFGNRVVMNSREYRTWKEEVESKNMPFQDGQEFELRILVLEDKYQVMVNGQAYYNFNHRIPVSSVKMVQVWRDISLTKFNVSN
Assay: ELISA, coated antigen 0.5 ug/mL

BINDER: 10D02 mouse IgG1 (antibody, V domains shown, VH and VL cloned in frame with mouse IgG1 constant domains; also called 10D02 mIgG1) VH: EVQLVESGGGLVQPGGSLRVSCAASGFTFSSYYMSWVRQAPGKGLEWVSGIVTGGGRTHYTDSVKGRFTITRDNAKNTLYLQMNSLRPEDTALYYCARVNGVVTNYDYWGQGTQVTVSS VL: QAVLTQPPSVSGSPGKTVTISCAGTSSDVGYGNYVSWYQQLPGMAPKLLIYDVNKRASGITDRFSGSKSGNTASLTISGLQSEDEADYFCASYRSPNNVVFGQGTHLTVL
OD values [OD]: 2.63

BINDER: 11F02 mouse IgG1 (antibody, V domains shown, VH and VL cloned in frame with mouse IgG1 constant domains; also called 11F02 mIgG1) VH: ELQVVESGGGLVQPGGSLRLSCAASGFTFSTNYMNWVRQAPGKGLEWVSGITSHGARTYYADSVKGRFTISRDNSKNTLYLQMNSLKPEDTALYYCARTDHASLDAWGQGTLVTVSS VL: QTVVTQEPSLSVSPGGTVTLTCGLSSGSVTSSNYPGWYQQKPGQAPRTLIYNTNSRYSGVPNRFSGSISGNKAALTITGAQPEDEADYYCALYMGSSSYNTVFGGGTHLTVL
OD values [OD]: 1.7

BINDER: 8H11 mouse IgG1 (antibody, V domains shown, VH and VL cloned in frame with mouse IgG1 constant domains; also called 8H11 mIgG1) VH: ELQLVESGGGLVQPGGSLRLSCAASGFTFSTNYMNWVRQAPGKGLEWVSGITSGGGRTYYADSVKGRFTISRDNAKNTLYLQMNSLKPEDTALYYCARTDHAWLDAWGQGTLVTVSS VL: QAGLTQPPSVSGTLGKTVTISCAGTSSDVGYGNYVSWYQQLPGTAPKLLIYAVSTRASGIPDRFSGSKSGNTASLTISGLLSEDEADYYCASYRSSNNYVFGGGTKLTVL
OD values [OD]: 2.97

BINDER: 10A06 mouse IgG1 (antibody, V domains shown, VH and VL cloned in frame with mouse IgG1 constant domains; also called 10A06 mIgG1) VH: QVQLVESGGGLVQPGGSLRLSCAASGFTFGNYDMSWVRQAPGKGPEWVSDINSGGGSTYYADSVKGRFTISRDNAKNSLLLQMNSLKPEDTAVYYCATGYTGYYYWGQGTQVTVSS VL: QTVVTQEPSLSVSPGGTVTLTCGLSSGSVTSSNYPAWYQQTPGQAPRALIYSINSRHSGVPDRFSGSISGNKAALTITGAQAEDEADYYCTLYMGTGSNNVVFGGGTHLTVL
OD values [OD]: 3.38

BINDER: 11F12 mouse IgG1 (antibody, V domains shown, VH and VL cloned in frame with mouse IgG1 constant domains; also called 11F12 mIgG1) VH: QVQLQESGGGLVQPGGSLRLSCAASGFTFSTNYMNWVRQAPGKGLEWVSGITSGGGRTYYADSVKGRFTISRDNAKNTLYLQMNSLKPEDTALYYCARTDHAWLDAWGQGTLVTVSS VL: HSAVTQPPSVSGTLGKTVTISCAGTSSDVGYGNYVSWYQHLPGTAPKLLIYAVSTRASGVPDRFSGSKSGNTASLTISGLQSEDEGDYYCASYSVRNNVVFGGGTRLTVL
OD values [OD]: 3.35

BINDER: 10B02 mouse IgG1 (antibody, V domains shown, VH and VL cloned in frame with mouse IgG1 constant domains; also called 10B02 mIgG1) VH: QVQLVESGGGLVQPGGSLRVSCAASGFTFSYHYMNWVRQAPGKGLEWVSGISAGGGRTYYADSVKGRFTISRDNAKNTLYLQMNSLNAEDTALYYCARVHGITNDYWGQGTQVTVSS VL: QSALTQPPSVSGSPGKTVTISCAGTSSDVGYGNYVSWYQQLPGMAPKLLIYEVNKRASGITDRFSGSKSGNTAFLTISGLQSEDEADYYCASYRNSNNWVFGGGTHLTVL
OD values [OD]: 3.36

This collection of values is drawn from patent US20190367619A1.
